Each item that follows carries a reported aptazyme ON/OFF ratio.
B1: Pistol ribozyme (parent)
chain: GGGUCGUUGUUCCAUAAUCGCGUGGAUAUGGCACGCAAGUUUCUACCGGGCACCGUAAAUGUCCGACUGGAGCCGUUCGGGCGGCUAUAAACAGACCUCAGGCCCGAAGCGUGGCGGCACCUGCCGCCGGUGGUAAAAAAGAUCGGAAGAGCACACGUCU

Variants of: B1
assay-protocol: aptazyme ON/OFF ratio, guanine; higher = stronger switching; co-transcriptional cleavage with and without guanine
measured-quantity: aptazyme ON/OFF ratio

1) U7G U8A U11C C12A C13U
1.46
2) U7G U8C U10A U11G C12U C13U
1.16
3) U8C U10A U11A C12U C13A
1.18
4) U7A U8A G9A U10G U11A C13G
1.03
5) U7A G9C U10A U11G C13A
1.03
6) U8C G9C U10G U11C C12U C13U
1.19
7) U8G U10G C13G
1.23
8) U7A U8G U10C U11G C12U
1.29
9) U7G G9U U10G U11A C12A C13U
1.16
10) U7A G9C U10C U11C C12A C13G
1.03
11) U7A U8G U10A U11C C12A
1.49
12) G9U U10G U11G C12A
1.75
13) U7G U8G G9C U10A C12A C13U
1.04
14) U7C U8A G9C U10G C12U C13A
1.18
15) U7G U8C G9A U10C U11A C12A C13U
1.14
16) G9U U10C U11A C13A
1.31
17) U7G U8A G9A U10A U11G C12U C13A
1.07
18) U7C U8G G9A U10G U11A C12A C13U
1.22
19) U7A G9A U10G U11C C13U
1.02
20) U7G
1.89
21) U7C U8A U10C C12U C13G
1.17
22) U7A U8C U11A C12G C13U
1.15
23) U7G G9C U11G C12U C13U
1.2
24) U7G U8G G9C U10C U11C C12G C13A
1.05
25) G9C U11G C12G C13G
1.07
26) U7C U8G G9A U10G U11A C12U C13A
1.46
27) U7G U8C G9U U10G U11A C12G C13A
1.16
28) U7C U8G G9A U10A C12A C13U
1.19
29) U7A U8G G9C U10C U11C C12U C13A
1.05
30) U7A U8C G9C U10C U11A C13G
1.08
31) U8C G9U U10A U11G C12A
1.07
32) U7A G9A U10C U11A C12A C13U
1.19
33) U7C G9A U10C U11G C12U C13U
1.32
34) U7A U8A U10A U11C C12U C13A
1.11
35) G9U U10A C12G C13A
1.07
36) U7G U8C G9A U10A U11C C12A C13U
1.13
37) U7C U10G U11C C13U
1.02
38) U7C U8G G9U U10C U11G C12A
1.14
39) U8G G9U U10C U11G C12G C13A
1.15
40) U7C U8C G9A U10C C12U C13G
1.26
41) U8C G9C C13U
1.08
42) U7A G9U U10G U11G
1.1
43) U7G U8A U10G C12U C13G
1.54
44) U7A U8A G9A U10G C12G C13U
1.31
45) U8C U10G U11C C12U C13U
1.28
46) U7G U8G C12G C13A
1.4

The reported measurements were obtained from the RNAGym collection of RNA variant scans (doi:10.1021/acssynbio.7b00057).
